Reported GI50 values follow for various compounds
- Tested on: NCI-H1781 cells
- Assay method text: Cellular proliferation in NCI-H1781 cells (CellTiter Glo)
- Assay type: cell-based, human
- Measurement conditions: NCI-H1781 cells, 120 h, redosed after 72 h

// field: GI50; key: COc1ccc(Oc2ccc(Nc3ncnc4sc5c(c34)C(C)CN(C(=O)C=CCN(C)C)C5)cc2C)cn1 (single isomer, unassigned) ; value = < 100 nM

So, Cc1ccc(Oc2ccc(Nc3ncnc4sc5c(c34)CN(C(=O)C=CCN(C)C)C5C)cc2C)cn1 (single isomer, unassigned) [Compound 170] ? Its GI50 was 350 to 1000 nM

What the record says about Cc1ccc(Oc2ccc(Nc3ncnc4sc5c(c34)CN(C(=O)C=CCN(C)C)C5C)cc2C)cn1 (single isomer, unassigned) [Compound 169] : GI50 is < 100 nM

The recorded GI50 for entry Cc1ccc(Oc2ccc(Nc3ncnc4sc5c(c34)C(C)CN(C(=O)C=CCN(C)C)C5)cc2C)cn1 (single isomer, unassigned) equals < 100 nM

---

pIC50: −log10 of the molar value.
Observed pIC50 values for EGFR WT (Homo sapiens) are listed in what follows.

Examples with answers:
1. Cc1ccc(Oc2ccc(Nc3ncnc4sc5c(c34)C(C)CN(C(=O)/C=C/CN(C)C(C)(C)C)C5)cc2C)cn1 (stereo not shown)
< 5.00
2. Cc1ccc(Oc2ccc(Nc3ncnc4sc5c(c34)CCN(C(=O)/C=C/CNCc3cc(C)n[nH]3)C5)cc2C)cn1
5.00 to 6.00
3. CCN(CC)C/C=C/C(=O)N1CCc2c(sc3ncnc(Nc4ccc(Oc5ccc(OC)nc5)c(C)c4)c23)C1
< 5.00
4. COc1ccc(Oc2ccc(Nc3ncnc4sc5c(c34)CCN(C(=O)/C=C/CN(C)C(C)(C)C)C5)cc2C)cn1
< 5.00

Considering Cc1ccc(Oc2ccc(Nc3ncnc4sc5c(c34)CCN(C(=O)/C=C/CN3CC4CC(C4)C3)C5)cc2C)cn1 , its pIC50 with EGFR WT (Homo sapiens) was recorded as 5.00 to 6.00

// compound Cc1ccc(Oc2ccc(Nc3ncnc4sc5c(c34)CCN(C(=O)/C=C/CN(CCO)CCO)C5)cc2C)cn1 , assay EGFR WT (Homo sapiens), pIC50 value: 5.00 to 6.00

---

This listing pairs molecules with measured IC50.
- Experimental target: HER2YVMA (Homo sapiens, UniProt P04626, INS775YVMA)
- Sequence (P04626 with tags, fused parts or gaps INS775YVMA): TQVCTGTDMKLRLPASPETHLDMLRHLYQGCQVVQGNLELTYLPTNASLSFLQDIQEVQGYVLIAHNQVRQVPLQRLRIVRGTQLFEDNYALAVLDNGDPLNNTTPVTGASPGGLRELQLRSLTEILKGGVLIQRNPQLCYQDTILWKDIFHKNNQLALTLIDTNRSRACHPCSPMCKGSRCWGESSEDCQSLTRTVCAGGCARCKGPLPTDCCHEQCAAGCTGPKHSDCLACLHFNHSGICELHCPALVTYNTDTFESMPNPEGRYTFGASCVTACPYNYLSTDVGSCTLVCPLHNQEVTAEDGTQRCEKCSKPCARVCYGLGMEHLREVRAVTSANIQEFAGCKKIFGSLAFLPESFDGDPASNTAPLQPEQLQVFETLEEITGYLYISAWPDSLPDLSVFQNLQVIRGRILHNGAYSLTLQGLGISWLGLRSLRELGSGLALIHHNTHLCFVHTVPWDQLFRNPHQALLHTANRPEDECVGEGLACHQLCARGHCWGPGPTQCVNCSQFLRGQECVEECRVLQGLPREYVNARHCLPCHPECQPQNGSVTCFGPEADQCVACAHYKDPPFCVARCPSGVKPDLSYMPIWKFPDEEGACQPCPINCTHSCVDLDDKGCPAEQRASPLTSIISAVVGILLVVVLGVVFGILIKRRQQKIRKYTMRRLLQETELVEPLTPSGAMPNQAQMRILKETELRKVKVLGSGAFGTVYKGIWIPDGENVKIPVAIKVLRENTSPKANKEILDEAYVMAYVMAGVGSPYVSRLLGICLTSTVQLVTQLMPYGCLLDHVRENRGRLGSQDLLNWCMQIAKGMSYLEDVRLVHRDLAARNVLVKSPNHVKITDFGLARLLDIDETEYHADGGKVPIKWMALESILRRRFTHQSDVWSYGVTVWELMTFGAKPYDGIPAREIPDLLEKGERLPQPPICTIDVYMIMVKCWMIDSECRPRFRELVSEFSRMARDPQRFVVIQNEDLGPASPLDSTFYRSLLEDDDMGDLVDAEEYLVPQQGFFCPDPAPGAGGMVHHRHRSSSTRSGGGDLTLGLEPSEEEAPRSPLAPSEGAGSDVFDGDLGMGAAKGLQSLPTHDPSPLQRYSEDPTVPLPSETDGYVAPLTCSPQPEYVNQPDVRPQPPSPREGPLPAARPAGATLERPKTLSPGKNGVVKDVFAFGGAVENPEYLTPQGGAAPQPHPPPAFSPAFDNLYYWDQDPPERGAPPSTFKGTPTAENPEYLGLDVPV
- Assay method text: Enzymatic assay HER2YVMA (method b)
- Measurement conditions: [HER2YVMA]=5 nM, [ATP]=25 μM, [Peptide 22]=1 μM
Counter-ions that a name gives are not always drawn.

1) Cc1ccc(Oc2ccc(Nc3ncnc4sc5c(c34)C(C)CN(C(=O)C=CCN3CCOCC3)C5)cc2C)cn1 (single isomer, unassigned) [Compound 176]
100 to 1000 nM
2) Cc1ccc(Oc2ccc(Nc3ncnc4sc5c(c34)CCCN(C(=O)/C=C/CN(C)C)C5)cc2C)cn1 [Compound 101]
< 100 nM
3) Cc1cc(Nc2ncnc3sc4c(c23)CCN(C(=O)/C=C/CN(C)C)C4)ccc1Oc1ccc2cn[nH]c2c1 [Compound 23]
< 100 nM
4) Cc1ccc(Oc2ccc(Nc3ncnc4sc5c(c34)C(C)N(C(=O)C=CCN(C)C)C5)cc2C)cn1 (single isomer, unassigned) [Compound 147]
< 100 nM

What the record says about Cc1ccc(Oc2ccc(Nc3ncnc4sc5c(c34)CCN(C(=O)/C=C/CN3CC4C(CO)C4C3)C5)cc2C)cn1 (stereo not drawn) [Compound 34] : IC50 is < 100 nM

Recorded result, O=C(/C=C/CN1CC2CC(C2)C1)N1CCc2c(sc3ncnc(Nc4ccc(Oc5ccc6ncnn6c5)c(Cl)c4)c23)C1 [Compound 85] , IC50: < 100 nM

Note to self: IC50 recorded for Cc1ccc(Oc2ccc(Nc3ncnc4sc5c(c34)CCN(C(=O)/C=C/CN3CCCC(c4nccs4)C3)C5)cc2C)cn1 (stereo not drawn) [Compound 113] was < 100 nM

The molecule listed as Cc1ccc(Oc2ccc(Nc3ncnc4sc5c(c34)CCN(C(=O)/C=C/CN3CC4CCC(C4)C3)C5)cc2C)cn1 [Compound 16, benzenesulfonate salt] shows IC50 equal to < 100 nM

Noted for Cc1ccc(Oc2ccc(Nc3ncnc4sc5c(c34)CCN(C(=O)/C=C/CN3CC4CCC3C4)C5)cc2C)cn1 (stereo not drawn) [Compound 14] : its IC50 reads < 100 nM

response.value for Cc1ccc(Oc2ccc(Nc3ncnc4sc5c(c34)CCN(C(=O)/C=C/CN3CCOC(C)(C)C3)C5)cc2C)cn1 [Compound 28] (field: IC50) = 100 to 1000 nM
